- study system: stearoyl-CoA desaturase (SCD) (Rattus norvegicus)
- measurement description: SCD assay in rat liver microsomes ([3H]stearoyl CoA desaturation, adapted from Talamo and Bloch)
- condition set: rat liver microsomes 0.2 mg/ml assay final, 30 min preincubation, 45 min reaction, room temperature
Documented IC50 across a set of compounds
metric: IC50 (nM)

INSERT INTO measurements (smiles_str, uom, assay_result) VALUES
  ('CC(=O)NCCn1c(=O)c(-c2cccnc2)nc2cnc(NCc3ccc(F)cc3)nc21', 'nM', 5700),
  ('CC(=O)NCCn1c(=O)c(-c2ccc(Cl)cc2)nc2cnc(NCc3ccc(Cl)c(Cl)c3)nc21', 'nM', 1890),
  ('COc1ccc(-c2nc3cnc(NCc4cccc(Cl)c4)nc3n(CCNC(C)=O)c2=O)cc1', 'nM', 1300),
  ('COc1ccc(-c2nc3cnc(NCc4ccc(Cl)c(Cl)c4)nc3n(CCNC(=O)c3cccnc3)c2=O)cc1', 'nM', 1600),
  ('COc1ccc(-c2nc3cnc(NCc4ccc(Cl)c(Cl)c4)nc3n(CCNS(C)(=O)=O)c2=O)cc1', 'nM', 2800),
  ('CC(=O)NCCn1c(=O)cnc2cnc(NCc3ccc(Cl)cc3)nc21', 'nM', 21900),
  ('COCC(=O)NCCn1c(=O)c(-c2ccc(OC)cc2)nc2cnc(NCc3ccc(Cl)c(Cl)c3)nc21', 'nM', 1800),
  ('CC(=O)NCCn1c(=O)c(-c2cccs2)nc2cnc(NCc3ccc(F)c(F)c3)nc21', 'nM', 3400),
  ('O=c1c(-c2cccnc2)nc2cnc(NCc3ccc(Cl)c(Cl)c3)nc2n1CCn1cncn1', 'nM', 5800),
  ('CC(=O)NCCn1c(=O)c(-c2ccc(Cl)cc2)nc2cnc(NCc3cccc(Cl)c3)nc21', 'nM', 7800),
  ('O=C(NCCn1c(=O)cnc2cnc(NCc3ccc(Cl)c(Cl)c3)nc21)c1ccccc1', 'nM', 2720);

====

- study system: stearoyl-CoA desaturase (SCD) (Rattus norvegicus, UniProt P07308)
- Construct: from tissue; host or cells: liver microsomes of male Sprague Dawley rats, with SCD induced by a carbohydrate-rich diet after fasting/feeding cycles
- Sequence (P07308 whole entry): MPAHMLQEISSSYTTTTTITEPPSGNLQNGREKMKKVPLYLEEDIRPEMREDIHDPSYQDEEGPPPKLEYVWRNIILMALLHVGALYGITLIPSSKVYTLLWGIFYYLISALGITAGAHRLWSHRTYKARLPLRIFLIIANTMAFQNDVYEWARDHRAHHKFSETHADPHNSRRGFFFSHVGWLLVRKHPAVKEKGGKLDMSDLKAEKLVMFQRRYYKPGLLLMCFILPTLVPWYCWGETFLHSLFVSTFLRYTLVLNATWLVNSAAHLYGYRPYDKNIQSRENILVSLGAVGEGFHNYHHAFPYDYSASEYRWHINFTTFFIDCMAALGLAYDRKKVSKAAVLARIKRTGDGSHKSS
- measurement description: SCD assay in rat liver microsomes ([3H]stearoyl CoA desaturation, adapted from Talamo and Bloch)
- Type: biochemical
- condition set: rat liver microsomes 0.2 mg/ml assay final, 30 min preincubation, 45 min reaction, room temperature
metric: log10(IC50) (log10 of the value in nM)

INSERT INTO measurements (smiles_str, metric, assay_result) VALUES
  ('O=C(NCCn1c(=O)c(-c2cccnc2)nc2cnc(NCc3ccc(Cl)c(Cl)c3)nc21)c1ccccc1', 'log10(IC50)', 3.61),
  ('COc1ccc(-c2nc3cnc(NCc4ccc(F)cc4)nc3n(CCNC(C)=O)c2=O)cc1', 'log10(IC50)', 3.11),
  ('COc1ccc(-c2nc3cnc(NCc4ccc(Cl)c(Cl)c4)nc3n(CCNC(=O)c3ccccc3)c2=O)cc1', 'log10(IC50)', 2.75),
  ('COc1ccc(-c2nc3cnc(NCc4ccc(Cl)c(Cl)c4)nc3n(CCNC(=O)c3ccncc3)c2=O)cc1', 'log10(IC50)', 3.45),
  ('COc1ccc(-c2nc3cnc(NCc4ccc(Cl)c(Cl)c4)nc3n(CCNC(=O)c3cccc(F)c3)c2=O)cc1', 'log10(IC50)', 3.35),
  ('O=C(NCCn1c(=O)c(-c2cccnc2)nc2cnc(NCc3ccc(Cl)c(Cl)c3)nc21)c1ccsc1', 'log10(IC50)', 3.70),
  ('COc1ccc(-c2nc3cnc(NCc4ccc(Cl)c(Cl)c4)nc3n(CCNC(=O)c3ccsc3)c2=O)cc1', 'log10(IC50)', 2.67);
